testMethodNotes: Quantitative High-Throughput drug screen in 47 multiple myeloma cell lines against the NCATS MIPE library collection: PCM6_Riken cell viability assay (AID 1919870); also: nearly all actives have a fitted effect of over 30% in size
settings: CellTiter-Glo ATP, 48 h; series mostly up to 45.8 µM
Results filed as inconclusive are left out. The source made the active and inactive calls. Calls follow the shape of the dose curve; as a rule, active = well fitted cell-killing curve with a large enough effect; inconclusive = small, poorly fitted or top-dose-only effect, or effect the other way; inactive = no such curve, though single readings can be large or run the other way.
Field 'call' accepts active, inactive

Known results for compounds:
compound	labelValue
COC[C@H](NC(=O)c1cnc(C)s1)C(=O)N[C@@H](COC)C(=O)N[C@@H](Cc1ccccc1)C(=O)[C@@]1(C)CO1	active
CN[C@@H]1C[C@H]2O[C@@](C)([C@H]1OC)n1c3ccccc3c3c4c(c5c6ccccc6n2c5c31)C(=O)N[C@H]4O	active
COc1ccc(S(=O)(=O)Nc2cc(-c3c(O)ccc4ccccc34)c(O)c3ccccc23)cc1	active
CC(C)[C@H](CO)Nc1nc(Nc2cccc(Cl)c2)c2ncn(C(C)C)c2n1	active

# input // return assay outcome for "COC(=O)[C@@H]1CC2=CC(=O)CC[C@]2(C)[C@@]23O[C@@H]2C[C@@]2(C)[C@H](CC[C@@]24CCC(=O)O4)[C@@H]13"
# output inactive

# input Tell me the recorded outcome of this test for "CCCCCCCCCCCCCCCC(=O)OC[C@@H](NC(=O)C(Cl)Cl)[C@H](O)c1ccc([N+](=O)[O-])cc1" .
# output inactive

# input Would you mind telling me which call this test gave "NC(=O)N1CCC(CC(=O)N2CCC([C@H]3c4ncc(Br)cc4CCc4cc(Cl)cc(Br)c43)CC2)CC1" ?
# output active

# input What did the test return for "CCN(CC)Cc1ccc2cc(COC(=O)Nc3ccc(C(=O)NO)cc3)ccc2c1" ?
# output active

# input Recorded test call requested for C=CC(=O)Nc1cccc(Nc2nc(NC3CCC(N(C)C)CC3)nc3c2ncn3C(C)C)c1 (stereo unspecified)
# output active

# input Record lookup: outcome of this test for "c1ccc2c(Oc3nc(Nc4ccc(N5CCOCC5)cc4)c4ncn(C5CCCCC5)c4n3)cccc2c1" ?
# output inactive

# input Record request — test call for C[C@H]1O[C@H](O[C@H]2[C@H](O)[C@@H](O)[C@@H](O[C@H]3[C@H](O)[C@@H](O)C(O)O[C@H]3CO)O[C@H]2CO)[C@H](O)[C@@H](O)[C@H]1N[C@H]1C=C(CO)[C@@H](O)[C@H](O)[C@@H]1O (stereo partly specified)
# output inactive
